Assign self-splicing fitness (ln) to each entry below.
- Protocol Description: self-splicing fitness, log relative to wild type (ln ratio); higher = more splicing; Tetrahymena group I intron in knt gene, E. coli kanamycin selection, DiMSum; sequences stand for … in CUCUCU…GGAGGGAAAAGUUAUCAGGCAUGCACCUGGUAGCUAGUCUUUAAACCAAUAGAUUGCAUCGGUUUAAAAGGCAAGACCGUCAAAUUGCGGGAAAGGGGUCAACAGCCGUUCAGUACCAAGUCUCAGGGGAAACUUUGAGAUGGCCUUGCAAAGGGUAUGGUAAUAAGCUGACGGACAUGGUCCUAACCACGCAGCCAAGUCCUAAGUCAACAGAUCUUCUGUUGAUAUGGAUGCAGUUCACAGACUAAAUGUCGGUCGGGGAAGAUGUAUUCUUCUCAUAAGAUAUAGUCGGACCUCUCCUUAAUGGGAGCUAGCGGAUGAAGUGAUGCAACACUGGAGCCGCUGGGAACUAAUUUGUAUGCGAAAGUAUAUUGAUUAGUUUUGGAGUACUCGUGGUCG;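 note: selection with 25 µg/mL kanamycin versus none on LB agar overnight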
- Condition: 37 °C
Give bare numbers.

Provide the reported self-splicing fitness (ln) of each entry below, same order.
1. CGACAGCAAUAUUACGGUGC
2. UAAAAGCAAUAUUACGAGAA
3. UAGAAGCAAUAUUACGCGCC
4. GCGCAGCAAUAUUACGUUUG
5. CAAAAGCAAUAUUACGGCGC
6. AGAAAGCAAUAUUACGACAA
7. AAAGAGCAAUAUUACGUCGU
8. GCAGAGCAAUAUUACGUAGG

[-2.53, -0.995, -0.65, -1.76, -1.5, 0.0351, -2.62, -1.7]

* * *

Please go through the items and note down their self-splicing fitness (ln).
- Protocol Description: self-splicing fitness, log relative to wild type (ln ratio); higher = more splicing; Tetrahymena group I intron in knt gene, E. coli kanamycin selection, DiMSum; sequences stand for … in CUCUCU…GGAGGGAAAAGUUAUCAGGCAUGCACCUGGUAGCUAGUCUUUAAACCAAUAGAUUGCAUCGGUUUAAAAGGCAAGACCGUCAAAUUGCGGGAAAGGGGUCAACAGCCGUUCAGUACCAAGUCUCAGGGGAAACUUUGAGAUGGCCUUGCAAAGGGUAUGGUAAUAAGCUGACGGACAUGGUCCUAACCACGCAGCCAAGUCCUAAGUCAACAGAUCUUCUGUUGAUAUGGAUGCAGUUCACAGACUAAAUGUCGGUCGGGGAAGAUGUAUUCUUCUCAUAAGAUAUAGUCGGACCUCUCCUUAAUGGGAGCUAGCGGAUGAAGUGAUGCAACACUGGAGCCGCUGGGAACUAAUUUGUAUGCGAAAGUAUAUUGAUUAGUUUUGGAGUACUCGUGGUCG
- Condition: 37 °C
One number for each entry.

Record excerpt, results attached:
Seq | self-splicing fitness (ln)
AACUAGCAAUAUUACGCAUA | -1.1
ACGAAGCAAUAUUACGAGAU | -1.79
UCCUAGCAAUAUUACGGCCA | -1.74
CCGUAGCAAUAUUACGUUGA | -3.13
AUGCAGCAAUAUUACGGAUA | -2.22

Please state self-splicing fitness (ln) for every sequence in the list that follows.
1. GGUUAGCAAUAUUACGGAUG
2. GUCCAGCAAUAUUACGUUGA
3. CCAGAGCAAUAUUACGAGUG
4. CAGUAGCAAUAUUACGGUGA

1: -0.92; 2: -0.239; 3: -0.146; 4: -2.58

Batch lookup, self-splicing fitness (ln) per entry.
1. CUUUAGCAAUAUUACGACGG
2. GAAGAGCAAUAUUACGUCUA

-0.827
-1.01

Batch request: self-splicing fitness (ln) per item, same order as input.
1. CCAUAGCAAUAUUACGCGAG
2. UAUGAGCAAUAUUACGCUAU
3. AAAAAGCAAUAUUACGAGAA
4. UUCGAGCAAUAUUACGGUGC
5. CGCAAGCAAUAUUACGUAGC
6. GAGAAGCAAUAUUACGGGUC
7. GUUAAGCAAUAUUACGCCUG
8. AUACAGCAAUAUUACGUCGC

-1.22
-1.3
-0.686
-2.29
-1.17
-2.24
-0.224
-3.06

* * *

- Protocol Description: self-splicing fitness, log relative to wild type (ln ratio); higher = more splicing; Tetrahymena group I intron in knt gene, E. coli kanamycin selection, DiMSum; sequences stand for … in CUCUCU…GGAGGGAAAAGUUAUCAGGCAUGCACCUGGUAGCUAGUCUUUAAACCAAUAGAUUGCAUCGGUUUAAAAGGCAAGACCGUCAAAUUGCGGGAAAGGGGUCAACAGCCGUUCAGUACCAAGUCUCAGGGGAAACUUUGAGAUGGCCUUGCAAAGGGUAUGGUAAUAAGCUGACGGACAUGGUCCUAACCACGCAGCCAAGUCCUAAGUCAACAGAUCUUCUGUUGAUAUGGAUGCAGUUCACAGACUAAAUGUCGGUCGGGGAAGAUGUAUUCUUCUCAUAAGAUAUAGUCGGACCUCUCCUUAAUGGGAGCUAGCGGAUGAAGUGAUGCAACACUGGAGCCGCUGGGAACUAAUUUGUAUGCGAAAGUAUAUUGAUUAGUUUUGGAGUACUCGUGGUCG
- Condition: 37 °C
For each of the sequences below, state its self-splicing fitness (ln).
Numbers only.

Consider the following illustrative entries.
Seq | self-splicing fitness (ln)
CAAAAGCAAUAUUACGGGCC | -2.28
ACGAAGCAAUAUUACGAAGC | -2.61
GUUGAGCAAUAUUACGAAUU | -1.24
UUACAGCAAUAUUACGAGGU | -2.72
CCCGAGCAAUAUUACGCCAA | -2.12
GGAGAGCAAUAUUACGCUGA | -1.36
UUUUAGCAAUAUUACGCACG | -0.745

# next sequence below
Given item `CGGAAGCAAUAUUACGCCUC` , the value recorded as its self-splicing fitness (ln) is -2.89

* * *

Would you mind telling me the reported self-splicing fitness (ln) of each entry?
- Protocol Description: self-splicing fitness, log relative to wild type (ln ratio); higher = more splicing; Tetrahymena group I intron in knt gene, E. coli kanamycin selection, DiMSum; sequences stand for … in CUCUCU…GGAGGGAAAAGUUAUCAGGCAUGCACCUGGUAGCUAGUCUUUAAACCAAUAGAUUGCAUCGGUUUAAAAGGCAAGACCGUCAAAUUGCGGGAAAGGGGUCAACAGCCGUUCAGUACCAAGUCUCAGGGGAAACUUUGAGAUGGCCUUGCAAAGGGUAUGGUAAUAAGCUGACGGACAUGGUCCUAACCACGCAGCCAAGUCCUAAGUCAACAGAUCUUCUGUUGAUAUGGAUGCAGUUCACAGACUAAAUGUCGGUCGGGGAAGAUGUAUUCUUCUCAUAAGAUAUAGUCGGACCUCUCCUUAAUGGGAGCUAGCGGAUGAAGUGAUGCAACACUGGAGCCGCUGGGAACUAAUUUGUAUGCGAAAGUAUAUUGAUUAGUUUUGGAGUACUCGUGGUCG
- Condition: 30 °C
One number for each entry.

Seq | self-splicing fitness (ln)
GUAGAGCAAUAUUACGCGCG | -0.605
CCGAAGCAAUAUUACGCCAU | -4.11
CUCUAGCAAUAUUACGUGCC | -3.23

Record self-splicing fitness (ln) per entry; entries follow.
1. AGUAAGCAAUAUUACGAUGA
2. UUUAAGCAAUAUUACGAGUU
3. UAUGAGCAAUAUUACGUUAG
4. GUGGAGCAAUAUUACGAUUA
5. GCCAAGCAAUAUUACGGCGU
6. GAUGAGCAAUAUUACGCGUG

1. -2.3
2. -2.48
3. -2.63
4. -2.1
5. -0.74
6. -0.71

Please go through the list and note self-splicing fitness (ln) for each sequence.
1. GGGGAGCAAUAUUACGACGU
2. AGUCAGCAAUAUUACGGCAA

1. -0.89
2. -0.287

Provide the reported self-splicing fitness (ln) of each entry below, same order.
1. UGAGAGCAAUAUUACGUUCG
2. UUCAAGCAAUAUUACGUGCG
3. UCUCAGCAAUAUUACGGAUA
4. GACGAGCAAUAUUACGGGCC
5. CCUAAGCAAUAUUACGCUGA

1. -2.08
2. -1.48
3. -1.12
4. -2.12
5. -2.63

* * *

- Protocol Description: self-splicing fitness, log relative to wild type (ln ratio); higher = more splicing; Tetrahymena group I intron in knt gene, E. coli kanamycin selection, DiMSum; sequences stand for … in CUCUCU…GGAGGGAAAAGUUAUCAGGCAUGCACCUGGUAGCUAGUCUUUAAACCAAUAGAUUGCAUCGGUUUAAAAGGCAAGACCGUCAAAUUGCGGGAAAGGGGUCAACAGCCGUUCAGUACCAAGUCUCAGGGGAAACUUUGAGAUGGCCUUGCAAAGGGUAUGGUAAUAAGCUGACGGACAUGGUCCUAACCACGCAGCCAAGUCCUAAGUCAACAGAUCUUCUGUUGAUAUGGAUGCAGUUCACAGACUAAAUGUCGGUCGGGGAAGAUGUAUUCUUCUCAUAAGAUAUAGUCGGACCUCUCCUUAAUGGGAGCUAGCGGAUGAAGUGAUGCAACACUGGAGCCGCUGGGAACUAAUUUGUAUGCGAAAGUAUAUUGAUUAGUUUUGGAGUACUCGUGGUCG
- Condition: 30 °C
Classify as follows. Reported self-splicing fitness (ln) greater than or equal to -2: yes (1). Reported self-splicing fitness (ln) below: no (0).

Study these solved cases before continuing.
Seq | Answer Label
CAUCAGCAAUAUUACGUAAA | yes (1)
UUCUAGCAAUAUUACGUUUU | no (0)
UGCCAGCAAUAUUACGGGAG | no (0)
UAGGAGCAAUAUUACGGUUU | no (0)
GGUGAGCAAUAUUACGUCCC | no (0)

Continue with the sequence presented below.
Tell me whether self-splicing fitness (ln) is at least -2 here: `UGCAAGCAAUAUUACGAAGG`
yes (1)
